- System: up-regulation of ICAM-1 (CD54) by IFNγ in A549 lung epithelial cells
- assay summary: A549 Epithelial Line Stimulated with IFNγ (ICAM-1 surface expression, FACS)
- Format: cell-based, human
- test parameters: A549 epithelial line stimulated with IFNγ; ICAM-1 expression by FACS; read-out: IC50, Example 43
pIC50: −log10 of the molar value.
observation type: pIC50

{"columns": ["molecule", "pIC50"],
 "data": [
  ["CNS(=O)(=O)c1cc(Nc2ncc(F)c(Nc3ccc(OCc4cccnc4)cc3)n2)ccc1C [Compound I-190]", 5.03]
]}

A: Cc1ccc(Nc2ncc(F)c(Nc3ccc(OC(C)C#N)cc3)n2)cc1S(N)(=O)=O (racemic) [Compound I-67]
B: Cc1cc(Nc2nc(Nc3ccc(F)c(S(N)(=O)=O)c3)ncc2F)cc(C)c1OCC#N [Compound I-35]
C: COc1cc(Nc2ncc(F)c(Nc3ccc(CC#N)cc3)n2)ccc1S(N)(=O)=O [III-9]
Order the entries by their reported pIC50, beginning at the minimum. Please reply with the labels ordered as requested. Many thanks.
C, B, A
